assay: Cell toxicity assay (CCK-8), Jurkat; type: cell-based; conditions: human, Jurkat cells; 72 h treatment (superscript a)
measured.attribute: CC50 at 72 h

INPUT: Any idea what CC50 at 72 h was measured for CC(C)C1CCN1Cc1ccc(CNC(=O)c2ccc3nncn3c2)cc1 (stereo not shown) [inhibitor 13] ?
OUTPUT: > 64 µM

====

test: Cell toxicity assay (CCK-8), HEK293T; type: cell-based; conditions: human, HEK293T cells; 72 h (3-days) treatment, n = 3; read-out: CC50 HEK293T (Cellular IC50, 3-days incubation)
In this section, each of the compounds is paired with its reported IC50 at 72 h.

Known IC50 at 72 h results, listed for orientation:
INPUT: Any idea what IC50 at 72 h was measured for CC(C)C1CCN1Cc1ccc(CNC(=O)c2ccc3nncn3c2)cc1 (centres unmarked) ?
OUTPUT: > 64 µM

INPUT: Follow-up item: CC(C)C1CCN1Cc1cc2cnc(NC(=O)c3ccc4nncn4c3)cc2[nH]1 (centres unmarked)
OUTPUT: > 64 µM

INPUT: Follow-up item: O=C(Nc1cc2[nH]c(CN3CCC3C3CC3)cc2cn1)c1ccc2nncn2c1 (centres unmarked)
OUTPUT: > 64 µM

INPUT: Follow-up item: CC(C)[C@H]1CCN1Cc1cc2cnc(NC(=O)c3ccc4nncn4c3)cc2[nH]1 [SR-C-107 (R)]
OUTPUT: > 64 µM

Let us move to another entry and its IC50 at 72 h.
INPUT: Any idea what IC50 at 72 h was measured for C[C@H]1CCCN1Cc1cc2cnc(NC(=O)c3ccc4nncn4c3)cc2[nH]1 ?
OUTPUT: > 64 µM
